TARGET OF ASSAY: PTP1B (Homo sapiens, UniProt P18031)
Sequence (P18031 whole entry): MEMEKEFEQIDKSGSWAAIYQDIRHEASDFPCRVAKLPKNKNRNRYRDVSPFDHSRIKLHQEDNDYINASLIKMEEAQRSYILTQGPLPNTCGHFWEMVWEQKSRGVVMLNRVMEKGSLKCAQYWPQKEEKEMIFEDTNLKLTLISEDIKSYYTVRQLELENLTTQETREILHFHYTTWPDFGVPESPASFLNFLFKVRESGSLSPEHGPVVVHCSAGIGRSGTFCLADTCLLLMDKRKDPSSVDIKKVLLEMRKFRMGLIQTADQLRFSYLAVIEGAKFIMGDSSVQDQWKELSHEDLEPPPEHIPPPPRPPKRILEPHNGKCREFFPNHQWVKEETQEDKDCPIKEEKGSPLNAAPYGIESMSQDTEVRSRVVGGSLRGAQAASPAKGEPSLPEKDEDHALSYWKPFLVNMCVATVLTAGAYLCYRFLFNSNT
EXPERIMENTAL PROTOCOL: Fluorescence quenching measurement of binding affinity
REPORTED CONDITIONS: fluorescence quenching, 0–25 μM inhibitor
READOUT KIND: KSV (Stern–Volmer constant)

[[record]]
compound = "CC1(C)C=Cc2c(cc(O)c3c2O[C@H](c2ccccc2)[C@H](O)C3=O)O1"
readout_kind = "KSV (Stern–Volmer constant)"
result = "0.0304 × 10^5 L·mol^–1"

[[record]]
compound = "O=c1cc(-c2ccc(O)cc2O)oc2cc(O)cc(O)c12"
readout_kind = "KSV (Stern–Volmer constant)"
result = "0.0124 × 10^5 L·mol^–1"

[[record]]
compound = "CC1(C)C=Cc2c(cc(O)c3c2O[C@H](c2ccccc2)[C@@H](O)C3=O)O1"
readout_kind = "KSV (Stern–Volmer constant)"
result = "0.4375 × 10^5 L·mol^–1"

[[record]]
compound = "O=c1cc(-c2ccc(O)cc2)oc2cc(O)cc(O)c12"
readout_kind = "KSV (Stern–Volmer constant)"
result = "0.0056 × 10^5 L·mol^–1"

[[record]]
compound = "CC1(C)C=Cc2c(cc(O)c3c2O[C@H](c2ccc(O)cc2)[C@@H](O)C3=O)O1"
readout_kind = "KSV (Stern–Volmer constant)"
result = "0.0132 × 10^5 L·mol^–1"

[[record]]
compound = "CC1(C)C=Cc2c(cc(O)c3c(=O)cc(-c4ccc(O)cc4)oc23)O1"
readout_kind = "KSV (Stern–Volmer constant)"
result = "0.0569 × 10^5 L·mol^–1"

[[record]]
compound = "O=C1c2c(O)cc(O)cc2O[C@H](c2ccc(O)cc2)[C@H]1O [Compound 6, dihydrokaempferol]"
readout_kind = "KSV (Stern–Volmer constant)"
result = "0.0002 × 10^5 L·mol^–1"

[[record]]
compound = "O=c1cc(-c2ccc(O)cc2)oc2cc(O[C@@H]3O[C@H](CO)[C@@H](O)[C@H](O)[C@H]3O)cc(O)c12 [Compound 13, apigenin-7-O-β-D-glucopyranoside]"
readout_kind = "KSV (Stern–Volmer constant)"
result = "0.3803 × 10^5 L·mol^–1"

